Reported MIC values are given for each entry in this list.
# TESTED_TARGET: Multidrug efflux pump subunit AcrB (Escherichia coli (strain K12)) (UniProt P31224)
# Sequence (whole entry): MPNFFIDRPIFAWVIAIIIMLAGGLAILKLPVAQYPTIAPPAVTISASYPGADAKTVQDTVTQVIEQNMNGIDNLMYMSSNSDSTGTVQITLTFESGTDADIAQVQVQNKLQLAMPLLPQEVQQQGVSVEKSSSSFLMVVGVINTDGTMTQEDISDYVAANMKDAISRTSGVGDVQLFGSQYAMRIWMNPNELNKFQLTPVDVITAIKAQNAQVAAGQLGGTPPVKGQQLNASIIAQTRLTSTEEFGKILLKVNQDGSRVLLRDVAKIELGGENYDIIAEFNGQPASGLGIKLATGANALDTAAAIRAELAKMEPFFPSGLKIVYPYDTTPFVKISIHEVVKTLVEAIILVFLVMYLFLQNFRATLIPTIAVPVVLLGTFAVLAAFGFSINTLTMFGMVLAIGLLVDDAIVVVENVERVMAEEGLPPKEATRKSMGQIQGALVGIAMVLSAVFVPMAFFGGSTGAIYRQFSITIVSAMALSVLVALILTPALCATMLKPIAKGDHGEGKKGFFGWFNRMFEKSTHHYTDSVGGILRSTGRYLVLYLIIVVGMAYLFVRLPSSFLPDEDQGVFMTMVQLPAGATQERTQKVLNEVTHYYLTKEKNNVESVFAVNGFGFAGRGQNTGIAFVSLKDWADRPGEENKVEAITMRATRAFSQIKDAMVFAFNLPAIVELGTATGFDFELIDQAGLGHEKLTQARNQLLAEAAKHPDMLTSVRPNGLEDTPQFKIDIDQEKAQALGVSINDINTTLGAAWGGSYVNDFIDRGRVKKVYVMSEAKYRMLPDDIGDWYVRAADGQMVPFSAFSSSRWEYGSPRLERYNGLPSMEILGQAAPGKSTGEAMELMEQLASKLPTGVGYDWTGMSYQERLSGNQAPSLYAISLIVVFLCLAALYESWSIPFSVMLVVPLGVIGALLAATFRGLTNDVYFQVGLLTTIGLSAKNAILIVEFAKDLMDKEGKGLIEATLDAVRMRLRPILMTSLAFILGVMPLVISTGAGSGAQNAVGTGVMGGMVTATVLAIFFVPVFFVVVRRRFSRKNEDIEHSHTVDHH
# ASSAY_PROTOCOL: Inhibition of AcrB in Escherichia coli BW25113 assessed as potentiation of erythromycin induced antibacterial activity by measuring erythromycin MIC at 64 ug/ml measured after 18 hrs by checkerboard titration method (reference value: 64 ug/ml)
# DETAILS: dose 64.0 µg/ml

O=C(NCCc1ccc(O)c(O)c1)c1ccccc1O: 64 µg/mL

Please fill in: MIC reported for O=C(NCCc1ccc(O)c(O)c1)c1cc(O)c(O)c(O)c1 = 16 µg/mL

Please fill in: MIC reported for Nc1ccc(C(=O)NCCc2ccc(O)c(O)c2)cc1 = 32 µg/mL

Please fill in: MIC reported for Oc1ccc(CCCCc2ccc(Br)cc2)cc1O = 64 µg/mL
